systemTested: HLA A0201 (Homo sapiens, UniProt P04439, D140Y/D185E/D98H/E176V/E277Q/G131W/G231S/I119V/I121R/I166T/I218V/L300P/L318F/N151K/N90K/P208A/P217A/Q86G/Q94H/R138H/R169H/T345S)
assayNotes: HLA class I competition binding assay using soluble HLA
Where no end group is shown, it is not given here.
propertyMeasured: IC50 (nM)
Just the number in nM, nothing appended.

Given TLYAHIQCL [compound 72] , state its recorded IC50.
34

---

systemTested: DRB1*0901 (Homo sapiens, UniProt P01903+P01911, A100R/A103E/D57H/D86V/F55Y/F60I/F76Y/I96F/K127E/L162R/M171V/P40D/Q125H/Q99R/R33Q/R42F/S133A/S66N/T210M/V115G/W38K/Y107V/Y59G/Y89S)
assayNotes: biochemical
Where no end group is shown, it is not given here.
As shown below, each of these sequences has a reported pIC50 value.
Value format note: pIC50 is -log10 of concentration (mol/L); just state the number.

Examples with answers:
>  <seqText>
NGWFYVEAVIDRQTG [compound 106]

>  <pIC50>
5.44

$$$$
>  <seqText>
DWVMAIFGVNPTVAEGF [compound 114]

>  <pIC50>
4.75

$$$$
>  <seqText>
WKHMRLECAIYYKAR [compound 91]

>  <pIC50>
5.20

$$$$

Next:
Given WKHIRLECVLMYKAR [compound 108] , state its recorded pIC50.
4.93

Where these numbers come from: patent US8969542B2
